Assay: Solubility in fasted state simulated intestinal fluid (FaSSIF)
Assay type: physicochemical
Details: thermodynamic from solid, After 4 hours at room temperature, Table 2 (Experimental Example 4)

| MOLECULE_SMILES | solubility at 4 h |
| --- | --- |
| COCCOc1cc(F)c(N2CCN(c3nc4c(nnn4C)c(=O)[nH]3)CC2)c(F)c1 | 1.66 µg/mL |

----------
Test: Solubility in fasted state simulated intestinal fluid (FaSSIF)
Assay type: physicochemical
Details: thermodynamic from solid, After 4 hours at room temperature, Table 1 (Experimental Example 2)

| COMPOUND | UNIT_SPEC | solubility at 4 h |
| --- | --- | --- |
| COCCOc1cc(F)c(N2CCN(c3nc4c(nnn4C)c(=O)[nH]3)CC2)c(F)c1 [Compound of Chemical Formula I] | µg/mL | 1.89 |

----------
Assay: Pharmacokinetic test (in vivo), oral administration, plasma concentration by LC-MS/MS
Design: species or system rats
Settings: rat, 10 mg/kg, plasma
MEASUREMENT_NAME: Cmax (ng/mL)

| MOLECULE_SMILES | UNIT_SPEC | MEAS_VALUE |
| --- | --- | --- |
| COCCOc1cc(F)c(N2CCN(c3nc4c(nnn4C)c(=O)[nH]3)CC2)c(F)c1 | ng/mL | 1020 |

----------
Assay: Pharmacokinetic test (in vivo), oral administration, plasma concentration by LC-MS/MS
Parameters: species or system rats
Conditions: rat, 10 mg/kg, plasma

| COMPOUND | half-life [h] |
| --- | --- |
| COCCOc1cc(F)c(N2CCN(c3nc4c(nnn4C)c(=O)[nH]3)CC2)c(F)c1 [Compound of Chemical Formula I] | 5.39 |

----------
Test: Pharmacokinetic test (in vivo), oral administration, plasma concentration by LC-MS/MS
Design: species or system rats
Conditions: rat, 10 mg/kg, plasma

| MOLECULE_SMILES | AUC(0-t) [µg·h/mL] |
| --- | --- |
| COCCOc1cc(F)c(N2CCN(c3nc4c(nnn4C)c(=O)[nH]3)CC2)c(F)c1 | 5.46 |
